# assayedSystem: human A1 receptor (Homo sapiens (Human), UniProt P30542)
# Sequence (P30542 whole entry): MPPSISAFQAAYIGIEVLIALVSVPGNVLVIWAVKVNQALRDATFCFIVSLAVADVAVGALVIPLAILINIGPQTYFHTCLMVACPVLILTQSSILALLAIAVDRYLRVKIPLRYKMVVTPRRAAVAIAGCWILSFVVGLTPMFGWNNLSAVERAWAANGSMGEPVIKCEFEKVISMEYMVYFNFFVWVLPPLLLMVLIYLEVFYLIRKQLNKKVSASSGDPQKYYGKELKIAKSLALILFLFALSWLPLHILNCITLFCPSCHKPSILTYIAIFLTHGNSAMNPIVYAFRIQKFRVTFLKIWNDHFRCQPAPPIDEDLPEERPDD
# experiment: A1 competition binding assay using Scintillation Proximity technology; selectivity = A1 binding Ki / A2a binding Ki
# conditionInfo: A1 binding Ki divided by A2a binding Ki
measuredEndpoint: A2a selectivity (A2a A1 binding selectivity)

> print(dat)
                                   molecule                             assayedsystem  reading
1  Nc1nc(C(=O)NCc2cccc3cccnc23)c2cccc(Cl)c2n1 [Example 91]  human A1 receptor (Homo sapiens (Human), UniProt P30542)       70
2  CC(C)c1cccc(-c2cccc(CNC(=O)c3nc(N)nc4c(F)cccc34)n2)c1 [Example 65]  human A1 receptor (Homo sapiens (Human), UniProt P30542)       50
3  Nc1nc(C(=O)NCC23CC4CC(CC(C4)C2)C3)c2cccc(F)c2n1 [Example 85]  human A1 receptor (Homo sapiens (Human), UniProt P30542)        4

a. COc1cccc2c(C(=O)NCc3cccc4ccncc34)nc(N)nc12 [Example 16]
b. CC(C)Oc1cccc(CNC(=O)c2nc(N)nc3c(F)cccc23)n1 [Example 78]
c. COc1cccc2c(C(=O)NCc3cccc(C)c3)nc(N)nc12 [Example 17]
Ascending sort, A2a selectivity (A2a A1 binding selectivity). List the labels in the requested order.
b, a, c

I. Nc1nc(C(=O)NCc2cccc3cccnc23)c2cccc(-c3cncnc3)c2n1 [Example 97]
II. Nc1nc(C(=O)NCc2cccc(-c3cnco3)n2)c2cccc(F)c2n1 [Example 70]
Which shows the larger A2a selectivity (A2a A1 binding selectivity) value: I or II ? Select an item and report its label.
II
(II: 19, I: 1)

A. Nc1nc(C(=O)NCc2cccc3c2OCCN3)c2cccc(F)c2n1 [Example 84]
B. COc1cccc2c(C(=O)NCc3cccc(Cc4cccnc4)n3)nc(N)nc12 [Example 104]
I'm curious whether A or B has the smaller A2a selectivity (A2a A1 binding selectivity) number. Which is it? Select an item and report its label.
A
(A: 25, B: 93)

1. Nc1nc(C(=O)NCc2cccc3cccnc23)c2cccc(Br)c2n1 [Example 96]
2. [2H]C([2H])(NC(=O)c1nc(N)nc2c(OC)cccc12)c1cccc(C([2H])([2H])c2cncc(OCCOC)c2)n1 [Example 107]
3. Nc1nc(C(=O)NCc2ccccc2-n2cccn2)c2cccc(F)c2n1 [Example 62]
4. COc1cccc2c(C(=O)NCc3cccc(C(C)(C)O)n3)nc(N)nc12 [Example 9]
5. [2H]C([2H])(NC(=O)c1nc(N)nc2c(OC)cccc12)c1cccc(C([2H])([2H])c2cncc(N3CCOCC3)c2)n1 [Example 110]
List these items ordered by A2a selectivity (A2a A1 binding selectivity), big to small. List the labels in the requested order.
4, 3, 2, 5, 1
(4: 764, 3: 297, 2: 95, 5: 64, 1: 12)

A. Nc1nc(C(=O)NCc2nccc3ccccc23)c2cccc(F)c2n1 [Example 89]
B. [2H]C([2H])(NC(=O)c1nc(N)nc2c(OC)cccc12)c1cccc(C([2H])([2H])c2cccc(OCCOC)c2)n1 [Example 106]
Which shows the larger A2a selectivity (A2a A1 binding selectivity) value: A or B ? Select an item and report its label.
B

I. COc1cccc2c(C(=O)N[C@@H](CO)c3ccccc3)nc(N)nc12 [Example 36]
II. COc1cccc2c(C(=O)NCc3ncccc3C(F)(F)F)nc(N)nc12 [Example 19]
I'm curious whether I or II has the smaller A2a selectivity (A2a A1 binding selectivity) number. Which is it? Select an item and report its label.
II

a. COc1cccc2c(C(=O)NCc3ncccn3)nc(N)nc12 [Example 38]
b. COc1cccc2c(C(=O)NCc3cccc4cccnc34)nc(N)nc12 [Example 12]
c. Cc1cccc(CNC(=O)c2nc(N)nc3c(Cl)cc(Cl)cc23)n1 [Example 93]
d. COC(=O)c1cccc(CNC(=O)c2nc(N)nc3c(F)cccc23)n1 [Example 75]
Ascending sort, A2a selectivity (A2a A1 binding selectivity). List the labels in the requested order.
d, b, c, a
(d: 14, b: 32, c: 55, a: 94)

a. COc1cccc2c(C(=O)NCc3cccn(C)c3=O)nc(N)nc12 [Example 61]
b. COc1ccc(CNC(=O)c2nc(N)nc3c(OC)cccc23)nc1 [Example 22]
I'm curious whether a or b has the smaller A2a selectivity (A2a A1 binding selectivity) number. Which is it? Select an item and report its label.
b

###

# assayedSystem: UniProt:P29274
# experiment: A2a competition binding assay using Scintillation Proximity technology
# conditionInfo: * assay run with 1 μg of membranes versus 0.25 μg; HEK293 cells expressing the human A2a receptor
measuredEndpoint: Ki (nM)

Some molecules with recorded Ki:
> print(dat)
                                   molecule  measuredendpoint  unitsofmeasure  reading
1  COC(=O)c1cccc(CNC(=O)c2nc(N)nc3c(F)cccc23)n1 [Example 75]                Ki              nM       23
2  COc1cccc2c(C(=O)NCc3cccc(CSc4ccc(F)cc4)n3)nc(N)nc12 [Example 55]                Ki              nM      3.2
3  COc1cccc2c(C(=O)NCc3cccc(COc4cccc(F)c4)n3)nc(N)nc12 [Example 54]                Ki              nM      2.1

I. [2H]C([2H])(NC(=O)c1nc(N)nc2c(OC)cccc12)c1cccc(C([2H])([2H])c2cncc(N3CCOCC3)c2)n1 [Example 110]
II. [2H]C([2H])(NC(=O)c1nc(N)nc2c(F)cccc12)c1cccc(Oc2ccc(OCCOC)cc2)n1 [Example 59]
I'm curious whether I or II has the smaller Ki number. Which is it? Select an item and report its label.
I
(I: 2.5 nM, II: 3.7 nM)

1. COC(=O)c1ccccc1CNC(=O)c1nc(N)nc2c(F)cccc12 [Example 74]
2. N#Cc1ccc(OCc2cccc(CNC(=O)c3nc(N)nc4c(F)cccc34)n2)cc1 [Example 47]
Which shows the larger Ki value: 1 or 2 ? Select an item and report its label.
2
(2: 3.8 nM, 1: 2.5 nM)

###

# assayedSystem: human A2a receptor (Homo sapiens (Human), UniProt P29274)
# Sequence (P29274 whole entry): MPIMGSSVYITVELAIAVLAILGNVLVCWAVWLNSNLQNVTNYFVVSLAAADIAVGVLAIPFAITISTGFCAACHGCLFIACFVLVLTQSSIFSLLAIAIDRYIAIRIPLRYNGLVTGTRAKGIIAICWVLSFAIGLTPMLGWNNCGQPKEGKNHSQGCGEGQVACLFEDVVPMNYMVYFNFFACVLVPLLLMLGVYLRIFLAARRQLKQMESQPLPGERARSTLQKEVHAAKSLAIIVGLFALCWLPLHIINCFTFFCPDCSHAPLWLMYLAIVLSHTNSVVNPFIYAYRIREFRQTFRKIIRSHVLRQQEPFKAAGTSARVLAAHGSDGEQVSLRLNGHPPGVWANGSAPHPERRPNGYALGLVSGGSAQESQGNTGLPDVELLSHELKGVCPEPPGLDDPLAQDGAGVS
# experiment: A2a competition binding assay using Scintillation Proximity technology
# conditionInfo: 0.25 μg of membranes from HEK293 cells expressing the human A2a receptor
measuredEndpoint: Ki (pM)

Some compounds with recorded Ki:
> print(dat)
                                 testsmiles  reading
1   COc1cccc2c(C(=O)NCc3cccc(C)c3)nc(N)nc12      400
2  CC(C)c1nc(CNC(=O)c2nc(N)nc3c(F)cccc23)cs1      600

I. COc1cccc2c(C(=O)NCc3cccc(F)n3)nc(N)nc12
II. COc1cccc(CNC(=O)c2nc(N)nc3c(OC)cccc23)n1
III. Nc1nc(C(=O)NCc2cccc3c2OCCN3)c2cccc(F)c2n1
List these items ordered by Ki, big to small. List the labels in the requested order.
III, I, II
(III: 5300 pM, I: 1500 pM, II: 800 pM)

###

# assayedSystem: human A2a receptor (Homo sapiens (Human), UniProt P29274)
# experiment: A2a competition binding assay using Scintillation Proximity technology
# conditionInfo: 0.25 μg of membranes from HEK293 cells expressing the human A2a receptor
pKi: −log10 of the molar value.
measuredEndpoint: pKi

Some compounds with recorded pKi:
> print(dat)
                                 testsmiles  measuredendpoint  reading
1  COc1cccc2c(C(=O)NCc3nc(-c4ccccc4)c(C)o3)nc(N)nc12               pKi     8.80
2  COc1cccc2c(C(=O)NCc3ccc4ccccc4n3)nc(N)nc12               pKi     8.82
3  Nc1nc(C(=O)NCc2cccc(Cc3ccncc3)n2)c2cccc(F)c2n1               pKi     8.80

P. COc1cccc2c(C(=O)NCc3cccc(CO[C@H]4CCOC4)n3)nc(N)nc12
Q. COc1cccc2c(C(=O)NCc3cccc(COCC(C)C)n3)nc(N)nc12
I'm curious whether P or Q has the smaller pKi number. Which is it? Select an item and report its label.
Q
(Q: 8.72, P: 8.96)

###

# assayedSystem: UniProt:P29274
# experiment: A2a competition binding assay using Scintillation Proximity technology
# conditionInfo: * assay run with 1 μg of membranes versus 0.25 μg; HEK293 cells expressing the human A2a receptor
pKi: −log10 of the molar value.
measuredEndpoint: pKi

Some compounds with recorded pKi:
> print(dat)
                                 testsmiles   assayedsystem  measuredendpoint  reading
1  COc1cccc2c(C(=O)NCc3ccccc3-c3cccnc3)nc(N)nc12  UniProt:P29274               pKi     8.04
2  Nc1nc(C(=O)NCc2cccc3cncn23)c2cccc(F)c2n1  UniProt:P29274               pKi     8.21
3  Nc1nc(C(=O)NCc2nccc3ccccc23)c2cccc(F)c2n1  UniProt:P29274               pKi     8.18

P. COc1cccc2c(C(=O)NCc3cccc(Cc4cccnc4)n3)nc(N)nc12
Q. [2H]C([2H])(NC(=O)c1nc(N)nc2c(OC)cccc12)c1cccc(C([2H])([2H])c2cccc(OCCOC)c2)n1
R. Nc1nc(C(=O)NCc2cccc3cccnc23)c2cccc(Br)c2n1
Ascending sort, pKi. List the labels in the requested order.
P, Q, R
(P: 8.30, Q: 8.72, R: 9.15)

P. [2H]C([2H])(NC(=O)c1nc(N)nc2c(OC)cccc12)c1cccc(C([2H])([2H])c2ccc(C(C)(C)OCOC)nc2)n1
Q. [2H]C([2H])(NC(=O)c1nc(N)nc2c(OC)cccc12)c1cccc(Oc2cncc(OC)c2)n1
Which shows the larger pKi value: P or Q ? Select an item and report its label.
P
(P: 8.64, Q: 8.30)
